# experimental.target: p38α (Homo sapiens, UniProt Q16539)
# Sequence (Q16539 whole entry): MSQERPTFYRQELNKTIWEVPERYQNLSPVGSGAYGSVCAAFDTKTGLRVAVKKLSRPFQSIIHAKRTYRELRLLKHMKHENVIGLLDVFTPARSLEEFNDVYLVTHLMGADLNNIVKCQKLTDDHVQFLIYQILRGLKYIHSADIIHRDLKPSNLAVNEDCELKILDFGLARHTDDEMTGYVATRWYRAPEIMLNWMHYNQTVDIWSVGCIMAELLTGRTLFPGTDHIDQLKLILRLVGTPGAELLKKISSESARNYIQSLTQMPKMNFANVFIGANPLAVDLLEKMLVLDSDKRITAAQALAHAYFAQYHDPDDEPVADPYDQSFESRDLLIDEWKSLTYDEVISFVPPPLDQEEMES
# assay.text: p38α/MK2 cascade assay
# Type: biochemical
# condition.details: Table 2; same p38α/MK2 cascade assay; 40 minutes preincubation; read-out: p38a/MK2 Cascade 40 min Pre-Incuabtion (% Inhibition): IC50
Parameter: IC50. Scope: all listed entries.

[
  {
    "compound": "COC(=O)c1ccc(C)c(-n2c(C)cc(OCc3ccc(F)cc3CNC(=O)Nc3cc(C(C)(C)C)nn3-c3cccc(O)c3)c(Cl)c2=O)c1 [Example 203]",
    "experimental.target": "p38α (Homo sapiens, UniProt Q16539)",
    "IC50, nM": 2.8
  },
  {
    "compound": "CNC(=O)c1ccc(C)c(-n2c(C)cc(OCc3ccc(F)cc3CNC(=O)Nc3cc(C(C)(C)C)nn3-c3ccc(O)c(Cl)c3)c(Cl)c2=O)c1 [Example 236]",
    "experimental.target": "p38α (Homo sapiens, UniProt Q16539)",
    "IC50, nM": 7.5
  },
  {
    "compound": "COc1ccccc1Cn1c(C)cc(OCc2ccccc2CNC(=O)Nc2cc(C(C)(C)C)nn2-c2ccc(O)c(Cl)c2)c(Cl)c1=O [Example 248]",
    "experimental.target": "p38α (Homo sapiens, UniProt Q16539)",
    "IC50, nM": 15.1
  },
  {
    "compound": "COc1ccc(Cn2c(C)cc(OCc3ccccc3CNC(=O)Nc3cc(C(C)(C)C)nn3-c3ccc(F)cc3F)c(C)c2=O)c(OC)c1 [Example 244]",
    "experimental.target": "p38α (Homo sapiens, UniProt Q16539)",
    "IC50, nM": 13.7
  },
  {
    "compound": "CSc1ccccc1Cn1c(C)cc(OCc2ccccc2CNC(=O)Nc2cc(C(C)(C)C)nn2-c2ccc(Cl)c(O)c2)c(C)c1=O [Example 277]",
    "experimental.target": "p38α (Homo sapiens, UniProt Q16539)",
    "IC50, nM": 131
  },
  {
    "compound": "COc1ccccc1Cn1c(C)cc(OCc2ccccc2CNC(=O)Nc2cc(C(C)(C)C)nn2-c2ccc(Cl)c(O)c2)c(Cl)c1=O [Example 262]",
    "experimental.target": "p38α (Homo sapiens, UniProt Q16539)",
    "IC50, nM": 84.3
  },
  {
    "compound": "Cc1cc(OCc2ccccc2CNC(=O)Nc2cc(C(C)(C)C)nn2-c2ccc(O)c(Cl)c2)c(Cl)c(=O)n1Cc1ccc(CNC(=O)CN)cc1 [Example 274]",
    "experimental.target": "p38α (Homo sapiens, UniProt Q16539)",
    "IC50, nM": 3.6
  },
  {
    "compound": "COC(=O)c1ccc(C)c(-n2c(C)cc(OCc3ccccc3CNC(=O)Nc3cc(C(C)(C)C)nn3-c3ccc(O)cc3)c(Cl)c2=O)c1 [Example 213]",
    "experimental.target": "p38α (Homo sapiens, UniProt Q16539)",
    "IC50, nM": 4
  },
  {
    "compound": "COC(=O)c1ccc(C)c(-n2c(C)cc(OCc3ccccc3CNC(=O)Nc3cc(C(C)(C)C)nn3-c3ccc(O)c(Cl)c3)c(Cl)c2=O)c1 [Example 222]",
    "experimental.target": "p38α (Homo sapiens, UniProt Q16539)",
    "IC50, nM": 9.6
  },
  {
    "compound": "COCCNC(=O)c1ccc(C)c(-n2c(C)cc(OCc3ccccc3CNC(=O)Nc3cc(C(C)(C)C)nn3-c3ccc(O)c(Cl)c3)c(Cl)c2=O)c1 [Example 225]",
    "experimental.target": "p38α (Homo sapiens, UniProt Q16539)",
    "IC50, nM": 3.03
  },
  {
    "compound": "CNC(=O)c1ccc(C)c(-n2c(C)cc(OCc3ccccc3CNC(=O)Nc3cc(C(C)(C)C)nn3-c3cccc(OCCO)c3)c(Cl)c2=O)c1 [Example 211]",
    "experimental.target": "p38α (Homo sapiens, UniProt Q16539)",
    "IC50, nM": 2.6
  },
  {
    "compound": "COc1ccccc1Cn1c(C)cc(OCc2ccccc2CNC(=O)Nc2cc(C(C)(C)C)nn2-c2ccc(O)cc2)c(C)c1=O [Example 263]",
    "experimental.target": "p38α (Homo sapiens, UniProt Q16539)",
    "IC50, nM": 23.1
  }
]

Source: patent US20090270350A1
